Test system: mouse FUBP1 mRNA
Test: FUBP1 mRNA reduction by LNA antisense oligonucleotides in primary mouse hepatocytes (PMH)
Assay type: cell-based
Conditions: 5 μM, 72 hours, normalized to GusB, % of PBS treated cells
t if % FUBP1 mRNA of control 5 μM Avg is below 60%. f if not; exact matches included in f.

1) AtaatcaacctgtccaGC (ATAATCAACCTGTCCAGC; chemistry not given here) [CMP ID NO 56_1] :: f
2) CAAgagccatctacacAT (CAAGAGCCATCTACACAT; chemistry not given here) [CMP ID NO 37_1] :: t
3) GTAtaatcaacctgtCC (GTATAATCAACCTGTCC; chemistry not given here) [CMP ID NO 63_1] :: t
4) CAtttattgtaaagcaCAAA (CATTTATTGTAAAGCACAAA; chemistry not given here) [CMP ID NO 82_1] :: t
5) CCccacacaatgaagcAA (CCCCACACAATGAAGCAA; chemistry not given here) [CMP ID NO 75_1] :: t
6) CAtacccattttcttgtAG (CATACCCATTTTCTTGTAG; chemistry not given here) [CMP ID NO 70_1] :: f
7) TataatcaacctgTCCA (TATAATCAACCTGTCCA; chemistry not given here) [CMP ID NO 61_1] :: t
8) TGTCcatttaagaatcCA (TGTCCATTTAAGAATCCA; chemistry not given here) [CMP ID NO 38_1] :: t
9) AtaatcaacctgTCCA (ATAATCAACCTGTCCA; chemistry not given here) [CMP ID NO 60_1] :: t
10) AtaatcaacctgtCCAG (ATAATCAACCTGTCCAG; chemistry not given here) [CMP ID NO 57_1] :: t
11) TTacatctatccCTTC (TTACATCTATCCCTTC; chemistry not given here) [CMP ID NO 47_1] :: t
12) ATcatttattgtaaAGCA (ATCATTTATTGTAAAGCA; chemistry not given here) [CMP ID NO 83_1] :: t
13) AAGTacatttatatcaCA (AAGTACATTTATATCACA; chemistry not given here) [CMP ID NO 81_1] :: t
14) AtattaacctcctatcAGT (ATATTAACCTCCTATCAGT; chemistry not given here) [CMP ID NO 78_1] :: f
15) CCCataaccatagtcAT (CCCATAACCATAGTCAT; chemistry not given here) [CMP ID NO 35_1] :: t
16) GtataatcaacctgtcCAG (GTATAATCAACCTGTCCAG; chemistry not given here) [CMP ID NO 59_1] :: f
17) AcccattttcttgtagTA (ACCCATTTTCTTGTAGTA; chemistry not given here) [CMP ID NO 66_1] :: f
18) GActatacctttgctGC (GACTATACCTTTGCTGC; chemistry not given here) [CMP ID NO 41_1] :: f
19) GAgccatctacacaTAAA (GAGCCATCTACACATAAA; chemistry not given here) [CMP ID NO 36_1] :: t
20) AtacccattttcttgtagTA (ATACCCATTTTCTTGTAGTA; chemistry not given here) [CMP ID NO 68_1] :: f
21) AtacccattttcttgTAG (ATACCCATTTTCTTGTAG; chemistry not given here) [CMP ID NO 69_1] :: f
22) TAcatctatcccttCAT (TACATCTATCCCTTCAT; chemistry not given here) [CMP ID NO 46_1] :: t
23) TAtaatcaacctgtcCAG (TATAATCAACCTGTCCAG; chemistry not given here) [CMP ID NO 58_1] :: t
24) AATattaacctcctatCAG (AATATTAACCTCCTATCAG; chemistry not given here) [CMP ID NO 79_1] :: t
25) GattcaggtgttccagtTA (GATTCAGGTGTTCCAGTTA; chemistry not given here) [CMP ID NO 44_1] :: f
26) CCcattttcttgtagTA (CCCATTTTCTTGTAGTA; chemistry not given here) [CMP ID NO 65_1] :: t
27) GatcttcatcaagtcgTC (GATCTTCATCAAGTCGTC; chemistry not given here) [CMP ID NO 77_1] :: t
